# Test System: Cholinesterase (Homo sapiens)
# Assay Name: Inhibition of human serum BuChE at 10 uM using butyrylthiocholine chloride as substrate preincubated for 15 mins followed by substrate addition and measured at 1 min time interval by Ellman's method relative to control
Listed next: entries and their corresponding inhibition.

{"Compound": "Cc1ccc2nc(-c3cccc(N4CCc5ccccc5C4)c3)[nH]c2c1", "Measurement Unit": "%", "inhibition": 20.7}
{"Compound": "COc1ccc2nc(-c3cccc(N4CCc5ccccc5C4)c3)[nH]c2c1", "Measurement Unit": "%", "inhibition": 5.4}
{"Compound": "Oc1ccc2nc(-c3cccc(N4CCc5ccccc5C4)c3)[nH]c2c1", "Measurement Unit": "%", "inhibition": 6.8}
{"Compound": "c1cc(-c2nc3ccccc3[nH]2)nc(N2CCc3ccccc3C2)c1", "Measurement Unit": "%", "inhibition": 23.2}
{"Compound": "COc1ccc2nc(-c3cccc(N4CCc5ccccc5C4)n3)[nH]c2c1", "Measurement Unit": "%", "inhibition": 35.6}
{"Compound": "Nc1cccc2nc(-c3cccc(N4CCc5ccccc5C4)c3)[nH]c12", "Measurement Unit": "%", "inhibition": 25.9}
{"Compound": "Clc1cc2nc(-c3cccc(N4CCc5ccccc5C4)c3)[nH]c2cc1Cl", "Measurement Unit": "%", "inhibition": 3.7}

====

# Test System: Cholinesterase (Homo sapiens) (UniProt P06276)
# Sequence (P06276 whole entry): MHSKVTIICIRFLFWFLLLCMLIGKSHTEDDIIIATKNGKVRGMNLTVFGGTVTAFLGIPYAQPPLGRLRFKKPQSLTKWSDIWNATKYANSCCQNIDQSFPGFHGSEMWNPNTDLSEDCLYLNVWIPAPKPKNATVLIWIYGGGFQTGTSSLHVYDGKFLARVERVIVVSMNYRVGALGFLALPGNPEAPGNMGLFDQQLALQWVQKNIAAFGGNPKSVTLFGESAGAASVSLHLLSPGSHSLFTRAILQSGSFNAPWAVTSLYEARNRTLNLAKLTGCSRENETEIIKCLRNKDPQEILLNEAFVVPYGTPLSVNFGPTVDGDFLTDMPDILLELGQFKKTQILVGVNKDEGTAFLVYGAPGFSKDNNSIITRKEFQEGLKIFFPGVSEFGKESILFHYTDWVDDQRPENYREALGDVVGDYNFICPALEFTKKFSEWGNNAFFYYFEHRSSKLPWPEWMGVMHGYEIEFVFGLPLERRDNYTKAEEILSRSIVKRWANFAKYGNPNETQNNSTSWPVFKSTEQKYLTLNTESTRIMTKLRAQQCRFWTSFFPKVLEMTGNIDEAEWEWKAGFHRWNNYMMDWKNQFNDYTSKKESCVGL
# Assay Name: Inhibition of human serum BuChE at 10 uM using butyrylthiocholine chloride as substrate preincubated for 15 mins followed by substrate addition and measured at 1 min time interval by Ellman's method relative to control
Measured Parameter: inhibition (%)

{"Compound": "Fc1cc2[nH]c(-c3cccc(N4CCc5ccccc5C4)c3)nc2cc1Cl", "Measured Parameter": "inhibition", "Measurement Unit": "%", "Assay Result": 0.5}
{"Compound": "COc1ccc2c(c1)CCN(c1cccc(-c3nc4ccc(OC)cc4[nH]3)n1)C2", "Measured Parameter": "inhibition", "Measurement Unit": "%", "Assay Result": 9.7}
{"Compound": "FC(F)(F)c1ccc2nc(-c3cccc(N4CCc5ccccc5C4)c3)[nH]c2c1", "Measured Parameter": "inhibition", "Measurement Unit": "%", "Assay Result": 11.3}
{"Compound": "COc1ccc2c(c1)CCN(c1cccc(-c3nc4ccc(OC)cc4[nH]3)c1)C2", "Measured Parameter": "inhibition", "Measurement Unit": "%", "Assay Result": 0.3}
{"Compound": "Oc1ccc2nc(-c3cccc(N4CCc5ccccc5C4)n3)[nH]c2c1", "Measured Parameter": "inhibition", "Measurement Unit": "%", "Assay Result": 45.6}

# credit: ChEMBL document CHEMBL4340508
